Hello, the source for this data is patent US9155706B2, in case you need it.

- experimental protocol: Single-dose (Day 1) pharmacokinetics of Compound tablets, first-time-in-human study
- stated conditions: human, plasma, po, 8 mg, AUC (0-24), Day 1, oral tablets, fasting, 8.0 mg loading dose, mean (CV %) and range
value kind: AUC(0-t)

Input line: Which value of AUC(0-t) has been reported for CC(=O)Nc1cccc(-n2c(=O)n(C3CC3)c(=O)c3c(Nc4ccc(I)cc4F)n(C)c(=O)c(C)c32)c1 [Compound] in the records?
Output line: 62.9 to 308 ng·h/mL

---

- experimental protocol: Single-dose (Day 1) pharmacokinetics of Compound tablets, first-time-in-human study
- stated conditions: human, plasma, po, 6 mg, Tmax, Day 1, oral tablets, fasting, 6.0 mg loading dose, median (range)
value kind: Tmax

Input line: Which Tmax is listed for CC(=O)Nc1cccc(-n2c(=O)n(C3CC3)c(=O)c3c(Nc4ccc(I)cc4F)n(C)c(=O)c(C)c32)c1 ?
Output line: 1.05 to 8.08 h
